These entries and their values trace back to paper PMC9911399.

# MEASURED_ON: T1, RBFOX1 RRM RbFoxmut (Fox-RRM*) (Homo sapiens, UniProt Q9NWB1 109-208, R118D;E147R;N151S;E152T)
# T1 sequence: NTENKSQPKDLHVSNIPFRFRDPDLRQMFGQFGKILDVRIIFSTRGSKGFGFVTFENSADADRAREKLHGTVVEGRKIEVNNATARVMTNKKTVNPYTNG
# TEST_SUMMARY: EMSA; HiTS-Eq, 1 nM pool, 10 min; buffer printed only for the single-RNA assays: 10 mM Tris pH 7.5, 150 mM NaCl, 3.4 mM EDTA, 0.001% NP-40, 30 C
# PROTOCOL_CONDITIONS: tags: His6 N-terminal (pET28a); label: 5' 32P
Whole data set: some 16,000 sequences, median “ka relative to ugcaugu” near 0.096, cut for the highest 2% near 0.35. What follows is part of a selection rich in the highest values, with near analogues and random picks from the rest.
PARAMETER: binding signal

Illustrative cases are given below, each with its answer.
UGAUCUG (DNA:RNA) RNA: GGGAGACCGGAAUUCAGAUUGUCCUGAUCUGUUAAAUCCCGUCGUAGCCACCA DNA 1: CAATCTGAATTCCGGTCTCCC DNA 2: TGGTGGCTACGACGGGATT : 0.0664 KA relative to UGCAUGU
CGUGAUG (DNA:RNA) RNA: GGGAGACCGGAAUUCAGAUUGUCCCGUGAUGUUAAAUCCCGUCGUAGCCACCA DNA 1: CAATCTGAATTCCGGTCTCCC DNA 2: TGGTGGCTACGACGGGATT : 0.268 KA relative to UGCAUGU
CGUGAUC (DNA:RNA) RNA: GGGAGACCGGAAUUCAGAUUGUCCCGUGAUCUUAAAUCCCGUCGUAGCCACCA DNA 1: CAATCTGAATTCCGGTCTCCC DNA 2: TGGTGGCTACGACGGGATT : 0.118 KA relative to UGCAUGU
UCACAUA (DNA:RNA) RNA: GGGAGACCGGAAUUCAGAUUGUCCUCACAUAUUAAAUCCCGUCGUAGCCACCA DNA 1: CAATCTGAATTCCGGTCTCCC DNA 2: TGGTGGCTACGACGGGATT : 0.112 KA relative to UGCAUGU
AUGCGAA (DNA:RNA) RNA: GGGAGACCGGAAUUCAGAUUGUCCAUGCGAAUUAAAUCCCGUCGUAGCCACCA DNA 1: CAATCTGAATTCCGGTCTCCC DNA 2: TGGTGGCTACGACGGGATT : 0.131 KA relative to UGCAUGU

Noted for GAAUGAA (DNA:RNA) RNA: GGGAGACCGGAAUUCAGAUUGUCCGAAUGAAUUAAAUCCCGUCGUAGCCACCA DNA 1: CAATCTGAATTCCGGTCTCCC DNA 2: TGGTGGCTACGACGGGATT : its binding signal reads 0.873 KA relative to UGCAUGU
